# Tested on: HTLV-III
# Assay Notes: Antiviral activity against HTLV-III
# Type: cell-based, human immunodeficiency virus (HIV)
# Experimental Context: Human immunodeficiency virus 1, ATH-8; T4+ human T cell (ATH8) cultures; read-out: Minimal Inhibitory Concentration (required to reduce virus-induced cytopathogenicity by 50%)
# Source text: The antiviral activity of the dideoxynucleosides of the present invention against a variety of viruses were compared. The results, shown in Table 3, indicate that the compositions of the present invention are selectively effective against HIV virus. ^1 Required to reduce virusinduced cytopathogenicity by 50%. ^5 Antiviral activity measured in T4+ human T cell (ATH8) cultures.
Measured Metric: IC50 (µM)
Lab book: enter the figure in µM, no units written.

Some entries whose results are on file:
Nc1ccn([C@H]2CC[C@@H](CO)O2)c(=O)n1    0.3
Nc1ncnc2c1ncn2[C@H]1CC[C@@H](CO)O1    5

Here is the next item to consider.
Summary for this compound, Cc1cn([C@H]2CC[C@@H](CO)O2)c(=O)[nH]c1=O : IC50 is 200
